Test system: MS2 coat protein
Experiment: apparent KD of MS2 coat protein; designed switch direction (-1 OFF switch, 1 ON switch): -1; higher = weaker reporter binding
Conditions: input ligand: FMN 200 uM
measurement_name: apparent KD of MS2 coat protein (nM)
Give the number; nM is assumed, so skip it.

Query :: Which apparent KD of MS2 coat protein is listed for UCCUUGUUAGGAUAUUGCCUGUGGGCUAAUCUGAAUACAGGUAAGAAGGGACAUGAGGAUCACCCAUGUGACAA [Eternabot (Original) Solution 32] (Eterna round: R97, puzzle: Exclusion 4) ?
Result :: 39.3

Query :: Also, CGAGCUUUUUGCUCGUCUUACAUGAGGAUCACCCAUGUCAAACAAACAAACAAACGAAAGUUUGUUUGUUUGUUUGA [Mod of sellena 2] (Eterna round: R97, puzzle: Sensor, turn-off variant 1) please.
Result :: 29.4

Query :: Also, CAGUACUGAGGAUAUACAUGAGGAUCACCCAUGUGAUUCAGUGCACGCGUACGUGUACGUAGAAGGCAGUACUG [JL 3.27 m2] (Eterna round: R97, puzzle: Exclusion 3) please.
Result :: 761
